# TESTED_TARGET: Rap guanine nucleotide exchange factor 4 (Homo sapiens)
# PROCEDURE_DETAILS: Confirmatory qHTS for antagonist of cAMP-regulated guanine nucleotide exchange factor 4 (EPAC2) (AID 1645885); further: nearly all actives have a fitted effect of over 25% in size
# ASSAY_SETUP: EPAC2 Rap1B-BODIPY-GDP exchange fluorescence, biochemical; series mostly up to 114 µM
Inconclusive results are not listed. Active and inactive are the calls of the source. The call rests on the fitted dose curve; in most records, active means well fitted inhibition curve with a large enough effect; inconclusive means small, poorly fitted or top-dose-only effect; inactive means no such curve, though single readings can be large or run the other way.
Entry note: the call must match one of active, inactive

These solved cases illustrate the format of a correct answer.
- COMPOUND: "COc1cc(NCCCC(C)N)c2ncccc2c1 (stereo not given)"
  GROUP: "inactive"
- COMPOUND: "C=CC(C)(O)CC/C=C(\\C)CCC=C(C)C (stereo not given)"
  GROUP: "active"
- COMPOUND: "CCCCC(=O)O[C@H]1CC[C@H]2[C@@H]3CCc4cc(O)ccc4[C@H]3CC[C@]12C"
  GROUP: "inactive"
- COMPOUND: "O=C(NNCS(=O)(=O)O)c1ccncc1"
  GROUP: "inactive"

Could you now consider this next compound?
Prompt: Could you please tell me the result logged for `NC(=O)Oc1ccc(Cc2ccccc2)cc1` in this assay?
Completion: inactive
